# Procedure Summary: Plasma protein binding in human plasma at 1 uM after 5 hrs by LC-MS/MS analysis
# Assay type: ADME, cell-free
# Measurement Conditions: read-out: PPB (converted)
Measure: fraction unbound at 5 h, 1 µM

Reference set, count: 4
| Molecule | Test Value |
| --- | --- |
| Cc1ccncc1CN(c1ccc(OCC(N)=O)cc1)C1CCN([C@H](C)CCNC(=O)c2c(C)cc(C#N)nc2C)CC1 | 0.11 |
| COCCOc1ccc(N(Cc2cnccc2C)C2CCN([C@H](C)CCNC(=O)c3c(C)cc(Cl)nc3C)CC2)cc1 | 0.15 |
| COc1ccc(N(Cc2cnccc2C)C2CCN([C@H](C)CCNC(=O)c3c(C)cc(Cl)nc3C)CC2)cc1 | 0.08 |
| CC(CCNC(=O)c1c(Cl)cncc1Cl)N1CCC(N(Cc2cccc(C#N)c2)c2ccc(OC(F)(F)F)cc2)CC1 (stereo not drawn) | < 0.001 |

[in] Please give the documented fraction unbound at 5 h, 1 µM of `COCCOc1ccc(N(Cc2cnccc2C)C2CCN([C@H](C)CCNC(=O)c3c(C)cc(F)nc3C)CC2)cc1`
[out] 0.19

[in] Indicate its recorded fraction unbound at 5 h, 1 µM; the molecule in question is `Cc1ccncc1CN(c1ccccc1)C1CCN([C@H](C)CCNC(=O)c2c(C)cc(C#N)nc2C)CC1`
[out] 0.06

[in] Please give measured fraction unbound at 5 h, 1 µM of the following entry: CC(CCNC(=O)c1c(Cl)cncc1Cl)N1CCC(N(Cc2ccccc2)c2ccc(Oc3ccc(C(=O)O)cc3)cc2)CC1 (stereo not drawn)
[out] < 0.001

[in] Answer with the recorded fraction unbound at 5 h, 1 µM for the molecule listed here: `COc1ccc(N(Cc2cnccc2C)C2CCN([C@H](C)CCNC(=O)c3c(C)cc(C(=O)NC(C)C)nc3C)CC2)cc1`
[out] 0.11

[in] Provide fraction unbound at 5 h, 1 µM value for the following molecule: `COc1ccc(N(Cc2cccc(C#N)n2)C2CCN([C@H](C)CCNC(=O)c3c(C)cc(Cl)nc3C)CC2)cc1`
[out] 0.16

[in] # return recorded fraction unbound at 5 h, 1 µM for entry `COc1ccc(N(Cc2cccc(C#N)n2)C2CCN([C@H](C)CCNC(=O)c3c(C)cc(C#N)nc3C)CC2)cc1`
[out] 0.09

[in] Supply reported fraction unbound at 5 h, 1 µM belonging to this molecule: `COc1ccc(N(Cc2cnccc2C)C2CCN([C@H](C)CCNC(=O)c3c(C)ccnc3C)CC2)cc1`
[out] 0.05

[in] Return fraction unbound at 5 h, 1 µM (reported value) for this molecule: `COc1ccc(N(Cc2cnccc2C)C2CCN([C@H](C)CCNC(=O)c3c(C)cc(F)nc3C)CC2)cc1`
[out] 0.21

[in] # return recorded fraction unbound at 5 h, 1 µM for input `COc1ccc(N(Cc2cnccc2C)C2CCN([C@H](C)CCNC(=O)c3c(C)cc(C#N)nc3C)CC2)cc1`
[out] 0.02

[in] Specify fraction unbound at 5 h, 1 µM for `COc1ccc(N(Cc2cccnc2)C2CCN([C@H](C)CCNC(=O)c3c(C)cc(Cl)nc3C)CC2)cc1` and stop.
[out] 0.07

[in] // Input: `COc1ccc(N(Cc2cnccc2C)C2CCN([C@H](C)CCNC(=O)c3c(C)ccnc3Cl)CC2)cc1` . Output its fraction unbound at 5 h, 1 µM only.
[out] 0.12

[in] Read the entry `COc1ccc(N(Cc2cccnc2)C2CCN([C@H](C)CCNC(=O)c3c(C)cc(F)nc3C)CC2)cc1` and write its reported fraction unbound at 5 h, 1 µM.
[out] 0.14

[in] Output fraction unbound at 5 h, 1 µM of `COc1ccc(N(Cc2cccc(C#N)n2)C2CCN([C@H](C)CCNC(=O)c3c(C)cc(F)nc3C)CC2)cc1`
[out] 0.21

[in] Answer with reported fraction unbound at 5 h, 1 µM of `COCCOc1ccc(N(Cc2cnccc2C)C2CCN([C@H](C)CCNC(=O)c3c(C)cc(C#N)nc3C)CC2)cc1`
[out] 0.08

Ref: ChEMBL document CHEMBL1926604
